Please respond with reported self-cleavage for every item in the list.
B1: CPEB3 Ribozyme (parent)
chain: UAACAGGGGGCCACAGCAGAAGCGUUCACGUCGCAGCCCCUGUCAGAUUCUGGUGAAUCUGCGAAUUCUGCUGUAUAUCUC

Variants of: B1
Test: self-cleavage, relative activity (ratio to wild type); higher = more cleavage; in vitro, sequencing
Reply with the value as a number alone.

q: Fill in the blank: the reported self-cleavage of UAACAGGGGGCCACAGCAGAAGCGUGCACGUCGCAGCCCCUGUCCGAUUCUGGUGAAUCUGCGAAUUCUGCUGUAUAUCUC [U26G A45C] is ____.
a: 0.09

q: Fill in the blank: the reported self-cleavage of UAAUAGGGGGCCACAGCAGAAGCGUUCACGUCGCAGCCCCUGUCAGAUUCUGGUGAAUCUGCGAAUUCUGCUGUACAUCUC [C4U U76C] is ____.
a: 1.16

q: Fill in the blank: the reported self-cleavage of UAACAGGGGGCCACAGCAGAAGCGUUCAAGUCGCAGCCCCUGUCAGAUUCUGGUGAAUCUGCGAAUUCUGCUGUAUAACUC [C29A U78A] is ____.
a: 0.27

q: Fill in the blank: the reported self-cleavage of UAACAGGGGGCCACAGCAGAAGCGUUCACGUCGCAGCCCCUGUCAGAUUCUGGAGAAUGUGCGAAUUCUGCUGUAUAUCUC [U54A C59G] is ____.
a: 0.35

q: Fill in the blank: the reported self-cleavage of UAUCAGGGGGCCACUGCAGAAGCGUUCACGUCGCAGCCCCUGUCAGAUUCUGGUGAAUCUGCGAAUUCUGCUGUAUAUCUC [A3U A15U] is ____.
a: 1.06
